System: U251 CNS
Assay: NCI-60 one-dose screen, 48 h (100 = growth as untreated, 0 = no growth, -100 = all killed)
Conditions: 10 µM unless noted
About 83,000 compounds went through this panel and 20% of them were active in at least one assay; those are over-represented in the sample as a whole.
Label 1 for high-side growth (at or above 50%) and 0 for low-side growth (below it).

Q: State whether the measured growth reaches 50%, counting equality as reaching it, for O=C(/C=C/c1ccco1)Nc1ncc(Cc2cc(Cl)ccc2Cl)s1
Result: 0

Q: Try this compound too: C=C(C)[C@@H]1CC[C@]2(C(=O)Nc3ccccn3)CC[C@]3(C)[C@H](CC[C@@H]4[C@@]5(C)CCCNC(C)(C)[C@@H]5CC[C@]43C)[C@@H]12
Result: 0

Q: Try this compound too: COc1ccccc1S(=O)(=O)Nc1ccc2c3c(cc(CCC(=O)NCCCCNc4cccc5c4C(=O)N(C4CCC(=O)NC4=O)C5=O)cc13)C(=O)N2C (stereo not drawn)
Result: 1

Q: Try this compound too: COc1cc(-c2nccc3[nH]c(-c4cccc5[nH]ccc45)nc23)cc(OC)c1OC
Result: 0

Q: Try this compound too: Nc1cc(C(=O)O)cc(-n2c(O)c(C=C3N=c4ccccc4=N3)sc2=S)c1
Result: 1

Q: Try this compound too: COc1ccc(C/C(C)=C(\c2ccc(Cl)cc2)c2ccc(OCCCN(C)C)cc2)cc1
Result: 0

Q: Try this compound too: CCCc1cc(=O)oc2c(C(=O)CC(C)C)c(O)c(CC=C(C)C)c(O)c12
Result: 0

Q: Try this compound too: Cc1c2ccccc2nc2cc3c(cc12)[C@H]1CC[C@]2(C)C(=O)CC[C@H]2[C@@H]1CC3
Result: 1

----------
Exercise: state measured growth for each of the compounds provided.
Tested on: TK-10 renal
Test: NCI-60 one-dose screen, 48 h (100 = growth as untreated, 0 = no growth, -100 = all killed)
Conditions: 10 µM unless noted
This is part of a sample that, as a whole, favours compounds with a hit. Of some 83,000 tested, about 20% had one in any assay.
Give just the number in %; leave the unit off.

Q: Which growth reading was recorded for the compound O=S(=O)(Nc1cc(Sc2nc3ccccc3s2)c(O)c2ccccc12)c1ccc2ccccc2c1 ?
Result: 123

Q: Try this compound too: S=c1ccnc[nH]1
Result: 127

Q: Try this compound too: COc1ccc(C(=O)/C=C/c2ccccc2)cc1S(N)(=O)=O
Result: 66.8

Q: Try this compound too: COc1ccc2[nH]cc(-c3nonc3-c3c[nH]c4ccc(Br)cc34)c2c1
Result: 49.9

Q: Try this compound too: CN(C)CCC(=O)C1CC1
Result: 113

Q: Try this compound too: COC(=O)Cn1c2c(c3c(OC)cccc31)C(=O)c1ccccc1-2
Result: 115

Q: Try this compound too: CC[C@@H](C(=O)[C@@H](C)[C@@H](O)[C@H](C)[C@@H]1O[C@@H]([C@@H](CC)C(=O)ONC(=O)c2ccccc2O)CC[C@@H]1C)C1O[C@]2(C=CC(=O)[C@]3(CC[C@@](C)([C@H]4CC[C@](O)(CC)[C@H](C)O4)O3)O2)[C@H](C)C[C@@H]1C (some centres undefined)
Result: 75.8

Q: Try this compound too: COC(=O)c1c2c(c[n+]([O-])c1C)C(=O)C=C(NCc1ccccc1)C2=O
Result: -82.4

Q: Try this compound too: Oc1ccc(-c2nc3ccc4[nH]ncc4c3c3c2CCCC3)c(F)c1
Result: 29.2
